Quantity measured: melting point

CN(C)CCN1C(=O)c2ccc3[nH]c4ccc(N)cc4c3c2C1=O	217 to 218 °C
O=C(c1ccccc1)c1cncc(Br)c1	66 to 68 °C
Cc1c(-c2ccccc2)n(-c2ccccc2)c(-c2ccc(C#N)cc2)cc1=O	229 to 233 °C
CCc1ccccc1N(C=C(C#N)C#N)N=C(C#N)C#N	172 to 174 °C
CCCCCCCCCCCCCCCCCC(=O)CC(=O)OC	52 to 54 °C

Query :: Specify measured melting point for N#CN=C(NCNC(=O)c1ccc(Cl)cc1)Nc1cccnc1 .
Result :: 196 to 197 °C

Query :: For COc1cccc(C=C2c3ccccc3CCc3ccccc32)c1 , write its melting point.
Result :: 83 °C

Query :: Read off the recorded melting point for CC(C)=CCOC(=O)c1cnn(-c2c(Cl)cc(Cl)cc2Cl)c1N
Result :: 102 to 105 °C

Query :: Please list melting point recorded for the compound O=C(O)COc1c(Br)cc(C(=O)c2ccc3ccccc3c2)cc1Br
Result :: 188 to 189 °C

Query :: Please look at this compound and report its melting point: CN1CCc2cc(Cl)c(O)cc2C1C1(c2ccc(Cl)cc2)CCC1 (centres undefined)
Result :: 168 to 171 °C

Query :: Read off the recorded melting point for COc1nc(I)cc(C(O)C(C)(C)C)c1C (centres undefined)
Result :: 64 to 65 °C

Query :: Specify reported melting point for the compound shown: COC(=O)C1=C(CCc2cccs2)NC(CC(=O)N2CCN(C)CC2)=C(C(=O)OC)C1c1c(Cl)cccc1Cl (centres undefined)
Result :: 142 to 145 °C

Query :: Please indicate melting point recorded for Cn1c(Oc2cccc(C(F)(F)F)c2)nc2c(-c3cccc(C(=O)NCC(N)=O)c3)cccc21
Result :: 185 to 186 °C

Query :: Given the compound CC(C)NC(=O)N1CCc2[nH]cnc2C1 , write its reported melting point.
Result :: 190 °C

Query :: Check the records and state melting point for CCOC(=O)/C=C/c1ccc(C=Cc2nc(-c3ccccc3)oc2C)cc1
Result :: 161 to 162 °C

Query :: State its melting point: CC(C(=O)O)(c1ccc(N2CCOCC2)cc1)c1ccc(N2CCOCC2)cc1
Result :: 217 to 223 °C

Query :: Provide melting point value for the following compound: CCCCc1nn2c(C)c(-c3ccccc3)nc2n1Cc1ccc(-c2ccccc2-c2nnn[nH]2)cc1
Result :: 207 to 208 °C

Query :: Give recorded melting point. COc1nc(NC(=O)NS(=O)(=O)c2ccccc2CCC(F)(F)F)nc(OC)n1
Result :: 177 to 178 °C

Query :: State its melting point: CN(Cc1cc2c3c(c1)c(=O)c(C(=O)NCc1ccc(F)cc1)cn3CC(=O)N2C)C[C@@H](O)c1nccs1
Result :: 156 to 158 °C

Query :: Quote melting point reported for COC(=O)Cn1c(C)ccc(NC(=O)OCc2ccccc2)c1=O please.
Result :: 115 to 116 °C

----------
Quantity measured: melting point

CC(C)(Oc1ccc(CCC(=O)c2ccc(-c3ccc(C(F)(F)F)cc3)s2)cc1F)C(=O)O	150 to 151 °C

Query :: Recall and state the measured melting point for O=C(NC(CCO)c1ccccc1Br)c1c(F)cccc1F (configuration not stated) .
Result :: 63 to 65 °C

----------
compounds and their reported melting point

COc1ccc(Cl)cc1-c1nccn1-c1ccccc1	97 to 102 °C
CN1CCC(c2c[nH]c3ccc(C(=O)c4ccc(Cl)cc4)cc23)CC1	133 °C
COC(=O)C(Cc1ccc(OCCn2ccc3cccnc32)cc1)C(=O)O (stereo unspecified)	120 to 122 °C
COc1ccccc1-c1nc2cc(C)ccc2c(=O)[nH]1	165 to 170 °C
Nc1cc(F)c(-n2ccc(=O)cc2)cc1N	227 to 230 °C

Query :: Return reported melting point. Input compound: COc1cc(-n2c(C#N)c(C#N)n(C(F)F)c2=O)c(F)cc1Br
Result :: 150 °C

Query :: Query melting point for O=C(CCCCCCS(=O)(=O)c1ccc2ccccc2c1)c1ncco1
Result :: 75 to 76 °C

----------
Quantity measured: melting point

COc1ccc2nc(C(=O)NCc3ccc(C(=O)O)cc3)[nH]c(=O)c2c1	287 to 288 °C

Query :: Return melting point (reported value) for this compound: CC(=O)OCC(=O)C1C(C)CC2C3CC(Cl)C4=CC(=O)C=CC4(C)C3(Cl)C(O)CC21C (centres undefined)
Result :: 238 °C

Query :: Input O=C(c1cccc(Br)c1)C(Br)C(Br)c1cccc(Br)c1 (centres undefined) , output reported melting point.
Result :: 159 to 160 °C

Query :: Consider the compound CCCCOc1nc(N)c2[nH]c(=O)n(CCCCN(CC(C)(C)O)S(=O)(=O)c3cccc(CC(=O)OC)c3)c2n1 and give its recorded melting point.
Result :: 192 to 193 °C

Query :: Annotate the compound CN(O)C(=O)CCc1ccc2c(c1)Cc1ccccc1CO2 with its measured melting point.
Result :: 120 to 122 °C

Query :: # return recorded melting point for input COC(=O)CC1=C(C)/C(=C/c2ccc(S(C)(=O)=O)cc2)c2ccc(F)cc21
Result :: 162 to 164 °C

Query :: Consider the compound CCCCc1nc(CO)c(S(=O)CC)n1Cc1ccc(-c2ccccc2C(=O)O)cc1 (centres undefined) . State its measured melting point.
Result :: 240 °C

Query :: Report measured melting point; entry is CCc1cc2c(s1)-n1c(C)nnc1C(CC(=O)Nc1ccccc1)N=C2c1ccc(Cl)cc1 (centres undefined)
Result :: 238 to 239 °C

Query :: Hello, please tell me recorded melting point for this one: COc1ccc(NC(=O)OCC2(C(C)=O)CC3C=CC2C3)cc1C (centres undefined)
Result :: 121 to 122 °C

----------
Catalogue of molecules with associated melting point

For orientation, consider the following solved cases.
COc1ccc(CN(C)CCc2ccc(NC(=O)c3cccc4c(=O)c5cccc(OC)c5[nH]c34)cc2)cc1OC	172 °C
O=C(O)c1ccc(N(CCOc2cccc3ccccc23)C(=O)C(F)(F)F)cc1	167 to 168 °C
O=C(O)Cc1csc(N=C2SC[C@@H]3Cc4ccccc4CN23)n1	185 °C
CCN(CC)CCNC(=O)c1cc(Cl)c(N)cc1OCCC(C)OC (stereo not given)	76 to 78 °C
CCC1CCN(C(=O)C(N)CCSCc2cn(C(c3ccccc3)(c3ccccc3)c3ccccc3)cn2)CC1 (stereo not given)	115 to 120 °C
Cc1cc(NC2CCCCC2)c2[nH]ncc2n1	287 to 289 °C

Query :: Check the records and state melting point for Oc1c2c(nc3c(-c4cc(-c5ccccc5)cs4)cnn13)CCCC2
Result :: 271 to 272 °C

Query :: Could you please provide reported melting point for CCOC(=O)c1cc2c3ccccc3n(CCCc3ccccc3)c2c(C)n1 ? Thanks!
Result :: 101 to 102 °C

Query :: Give a short answer stating reported melting point for CCCC(=O)NS(=O)(=O)c1ccc(C(=O)C=Cc2cc(-c3cc4ccccc4[nH]3)c(OC)cc2OC)cc1 .
Result :: 155 to 165 °C

Query :: Assign melting point to the following record: COC(=O)NN=C(OC)OC
Result :: 78.5 to 81.5 °C

Query :: Determine from records and report melting point for CCCCCCCN(CCCCCSc1ncnc2[nH]ncc12)C(=O)NC(C)C
Result :: 81 to 83 °C

Query :: Tell us which melting point value is on record for Cn1cc2c(C3C(=O)Nc4ccc(Br)cc43)nc(NCCN)nc2n1 (stereo not given)
Result :: 260 to 262 °C

Query :: Report melting point for CCc1cccc2c(/C=C/C(=O)N3CCCCC3)cc(OC)c(O)c12
Result :: 85 to 86 °C

Query :: Please indicate melting point recorded for COC(=O)CNC(=O)OC1c2ccccc2C(=O)N1c1ccc2ccc(Cl)nc2n1 (stereo not given)
Result :: 208 to 210 °C

Query :: Look up melting point of COc1cccc(C(=O)Nc2ccc(CN3C(=O)[C@H]4CCC[C@H]4N(C(=O)CN4C(=O)c5ccccc5C4=O)c4ccccc43)cc2)c1 (relative stereo) and report it.
Result :: 250 to 251 °C

----------
Listed compounds paired with reported melting point

COc1ccc2cc(-c3ccncn3)ccc2n1	164 to 165 °C

Query :: Provide measured melting point value, entry: CC1=CC2C(CC1)C(c1ccc(F)cc1)=NC(=O)N2C(C)C (stereo not given)
Result :: 154 to 158 °C

Query :: Give the reported value of melting point for this record: COC(=O)C(=O)c1ccc(OCCOc2ccccc2F)cc1
Result :: 112 to 113 °C

----------
Entries annotated with measured melting point

O=c1oc(-c2cc(C(F)(F)F)cc(C(F)(F)F)c2)ns1	61 to 62.5 °C

Query :: Note melting point for the molecule shown: CCc1ccc(C(=O)O)c(O)n1
Result :: 190 to 193 °C

Query :: Please give measured melting point of the following entry: CC(C)(C)OC(=O)N1CCNC(=O)C1Sc1ccccc1 (stereo not drawn)
Result :: 138 to 140 °C

Query :: // Input: C=CC[C@H](CC(=O)OC(C)(C)C)C(=O)N[C@H](C(=O)OCc1ccccc1)C(C)(C)C . Output its melting point only.
Result :: 55 to 57 °C

Query :: Give a short answer stating reported melting point for FC(F)(F)c1ccc(-c2cc(Oc3ccc4cccnc4c3)nnc2-c2ccccc2)cc1 .
Result :: 178 to 183 °C

Query :: Complete the entry with melting point for CCC(=O)Oc1ccc2c(=O)c(C(=O)CC)c(CC)oc2c1
Result :: 84 °C

Query :: For the molecule CCOC(=O)C1=C(C)Nc2nc(N3CCOCC3)nc(N3CCOCC3)c2C1c1cccs1 (stereo not drawn) , give its measured melting point value.
Result :: 205 °C

Query :: Provide one value: measured melting point of O=C1CCc2ccc(OCCCCBr)cc2N1
Result :: 106 to 109 °C

Query :: Supply recorded melting point for O=C1CCc2c(Cl)sc(Cl)c21 here.
Result :: 168 to 170 °C

Query :: Give melting point for COc1ccc(-c2nc3cc(F)ccc3s2)cc1OC(C)=O
Result :: 190 °C

Query :: Using known records, supply melting point for COC(=O)c1ccc(OC(=O)CCC(=O)Oc2ccc(C(=O)OC)cc2)cc1
Result :: 190 °C

Query :: Give the measured melting point for C=CCN1C(C(=O)Nc2coc3ccccc3c2=O)C(=O)c2ccccc2S1(=O)=O (stereo not drawn)
Result :: 218 to 220 °C
